Reported MIC values for a set of molecules
System: C. krusei
Type: cell-based, Candida krusei
REPORTED CONDITIONS: C. krusei strain ATCC6258
Procedure: Broth Dilution Antifungal Susceptibility Testing The sensitivity of relevant fungal strains to the peptides was determined using Clinical Laboratory Standard Institute (CLSI; formerly NCCLS) Approved Standards.
Write the value in µM as a bare number.

- MOLECULE: "CC(=O)N[C@@H](CCCNC(=N)N)C(=O)N[C@@H](CCCNC(=N)N)C(=O)N[C@@H](CCCNC(=N)N)C(=O)N[C@@H](CCCNC(=N)N)C(=O)N[C@@H](CCCNC(=N)N)C(=O)N[C@@H](CCCNC(=N)N)C(=O)N[C@@H](CCCNC(=N)N)C(=O)N[C@@H](CCCNC(=N)N)C(=O)N[C@@H](CCCNC(=N)N)C(=O)N[C@@H](CCCNC(=N)N)C(=O)N[C@@H](CCCNC(=N)N)C(=O)N[C@@H](CCCNC(=N)N)C(=O)N[C@@H](CCCNC(=N)N)C(N)=O"
  TGT: "C. krusei"
  MIC / µM: 2

Moving on to the next molecule.
IN: Field request: MIC | item: N=C(N)NCCC[C@H](NC(=O)[C@H](CCCNC(=N)N)NC(=O)[C@H](CCCNC(=N)N)NC(=O)[C@H](CCCNC(=N)N)NC(=O)[C@H](CCCNC(=N)N)NC(=O)[C@H](CCCNC(=N)N)NC(=O)[C@H](CCCNC(=N)N)NC(=O)[C@H](CCCNC(=N)N)NC(=O)[C@H](CCCNC(=N)N)NC(=O)[C@H](CCCNC(=N)N)NC(=O)[C@H](CCCNC(=N)N)NC(=O)[C@H](CCCNC(=N)N)NC(=O)[C@@H](N)CCCNC(=N)N)C(=O)O [NP337]
OUT: 2
